Taken from ChEMBL document CHEMBL3885861.

PL reference
- Species on record: Rattus norvegicus
- Assay procedure: Open TG-GATES - Regimen: Daily Repeat
- Format: toxicity, organism-based, Sprague-Dawley
- Design: regimen Daily Repeat, gender Male, age 6 weeks
- Measurement parameters: in vivo, po, 0 mg/kg, 72 h, tissue Plasma, route gavage, dose level Control, time 3 day
Field: numeric (mg/dL). Do not append units.

Some solved entries appear below for comparison.
Molecule	PL, mg/dL
COc1ccc(O)c(C(C)(C)C)c1.COc1ccc(O)cc1C(C)(C)C [BUTYLATED HYDROXYANISOLE]	136.2
O=C1NC(=O)C(c2ccccc2)(c2ccccc2)N1	141.6
COc1ccc(Cl)cc1C(=O)NCCc1ccc(S(=O)(=O)NC(=O)NC2CCCCC2)cc1 [GLYBURIDE]	160.2
O=P1(N(CCCl)CCCl)NCCCO1 (centres undefined) [CYCLOPHOSPHAMIDE ANHYDROUS]	133.8
CS(=O)(=O)Nc1ccc([N+](=O)[O-])cc1Oc1ccccc1 [NIMESULIDE]	132.2

Can you look up the measured PL of C=CCO for me?
148.2

Would you mind doing Cc1cccc(Nc2cc(Cl)nc(SCC(=O)O)n2)c1C as well?
155

Would you mind doing O=C1CN(/N=C/c2ccc(-c3ccc([N+](=O)[O-])cc3)o2)C(O)=N1 as well?
158.6

Would you mind doing Cn1cnc([N+](=O)[O-])c1Sc1ncnc2nc[nH]c12 as well?
157.8

* * *

LIVER reference
- Species on record: Rattus norvegicus
- Assay procedure: Open TG-GATES - Regimen: Single
- Format: toxicity, organism-based, Sprague-Dawley
- Set-up: regimen Single, gender Male, age 6 weeks
- Measurement parameters: in vivo, po, 0 mg/kg, 6 h, tissue Liver, route gavage, dose level Control
Field: numeric (g). Do not append units.

Molecule	Readout unit	Test value
CS(=O)(=O)Nc1ccc([N+](=O)[O-])cc1Oc1ccccc1 [NIMESULIDE]	g	8.5

Can you look up the measured LIVER of COc1ccc(Cl)cc1C(=O)NCCc1ccc(S(=O)(=O)NC(=O)NC2CCCCC2)cc1 [GLYBURIDE] for me?
9.5

Would you mind doing Cc1cccc(Nc2cc(Cl)nc(SCC(=O)O)n2)c1C [PIRINIXIC ACID] as well?
8

Would you mind doing COc1ccc(O)c(C(C)(C)C)c1.COc1ccc(O)cc1C(C)(C)C [BUTYLATED HYDROXYANISOLE] as well?
8.1

Would you mind doing O=C1CN(/N=C/c2ccc(-c3ccc([N+](=O)[O-])cc3)o2)C(O)=N1 [DANTROLENE] as well?
9.3

Would you mind doing Cn1cnc([N+](=O)[O-])c1Sc1ncnc2nc[nH]c12 [AZATHIOPRINE] as well?
8.4

Would you mind doing S=C=Nc1cccc2ccccc12 [1-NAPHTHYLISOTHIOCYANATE] as well?
9.6

Would you mind doing CNCCC(Oc1ccc(C(F)(F)F)cc1)c1ccccc1.Cl (stereo unspecified) [FLUOXETINE HYDROCHLORIDE] as well?
9.3

Would you mind doing C=CCO [ALLYL ALCOHOL] as well?
9.6

Would you mind doing O=P1(N(CCCl)CCCl)NCCCO1 (stereo unspecified) [CYCLOPHOSPHAMIDE ANHYDROUS] as well?
8.1

Would you mind doing O=C1NC(=O)C(c2ccccc2)(c2ccccc2)N1 [PHENYTOIN] as well?
8.5

* * *

- Species on record: Rattus norvegicus
- Assay procedure: Open TG-GATES - Regimen: Single
- Format: toxicity, organism-based, Sprague-Dawley
- Design: regimen Single, gender Male, age 6 weeks
- Measurement parameters: in vivo, po, 0 mg/kg, 6 h, tissue Plasma, route gavage, dose level Control
Measured metric: TBIL

Some solved entries appear below for comparison.
Compound	Measured metric	Test value
C=CCO [ALLYL ALCOHOL]	TBIL	0.1 mg/dL
O=C1NC(=O)C(c2ccccc2)(c2ccccc2)N1 [PHENYTOIN]	TBIL	0.05 mg/dL
O=C1CN(/N=C/c2ccc(-c3ccc([N+](=O)[O-])cc3)o2)C(O)=N1 [DANTROLENE]	TBIL	0.3 mg/dL
COc1ccc(Cl)cc1C(=O)NCCc1ccc(S(=O)(=O)NC(=O)NC2CCCCC2)cc1 [GLYBURIDE]	TBIL	0.2 mg/dL
CNCCC(Oc1ccc(C(F)(F)F)cc1)c1ccccc1.Cl (stereo unspecified) [FLUOXETINE HYDROCHLORIDE]	TBIL	0.048 mg/dL

Moving on to another compound below.
Can you look up the measured TBIL of CS(=O)(=O)Nc1ccc([N+](=O)[O-])cc1Oc1ccccc1 [NIMESULIDE] for me?
0.4 mg/dL

* * *

- Species: Rattus norvegicus
- Assay procedure: Open TG-GATES - Regimen: Daily Repeat
- Type: toxicity, organism-based, Sprague-Dawley
- Parameters: regimen Daily Repeat, gender Male, age 6 weeks
- Measurement parameters: in vivo, po, 0 mg/kg, […], tissue Plasma, route gavage, dose level Control, time 14 day
Measured metric: BUN (mg/dL)
Field: numeric (mg/dL). Do not append units.

Can you look up the measured BUN of COc1ccc(Cl)cc1C(=O)NCCc1ccc(S(=O)(=O)NC(=O)NC2CCCCC2)cc1 [GLYBURIDE] for me?
14

Would you mind doing CS(=O)(=O)Nc1ccc([N+](=O)[O-])cc1Oc1ccccc1 [NIMESULIDE] as well?
17.4

Would you mind doing O=P1(N(CCCl)CCCl)NCCCO1 (centres undefined) [CYCLOPHOSPHAMIDE ANHYDROUS] as well?
18.2

* * *

TERMINAL_BW reference
- Species: Rattus norvegicus
- Assay procedure: Open TG-GATES - Regimen: Single
- Assay type: toxicity, organism-based, Sprague-Dawley
- Design: regimen Single, gender Male, age 6 weeks
- Measurement parameters: in vivo, po, 0 mg/kg, 3 h, route gavage, dose level Control
Field: numeric (g). Do not append units.

Can you look up the measured TERMINAL_BW of C=CCO for me?
221.5

Would you mind doing CNCCC(Oc1ccc(C(F)(F)F)cc1)c1ccccc1.Cl (stereo unspecified) [FLUOXETINE HYDROCHLORIDE] as well?
216.5

Would you mind doing COc1ccc(O)c(C(C)(C)C)c1.COc1ccc(O)cc1C(C)(C)C [BUTYLATED HYDROXYANISOLE] as well?
208.5

Would you mind doing O=C1NC(=O)C(c2ccccc2)(c2ccccc2)N1 as well?
209.3

Would you mind doing Cn1cnc([N+](=O)[O-])c1Sc1ncnc2nc[nH]c12 as well?
189.8

Would you mind doing O=C1CN(/N=C/c2ccc(-c3ccc([N+](=O)[O-])cc3)o2)C(O)=N1 as well?
200.3

Would you mind doing S=C=Nc1cccc2ccccc12 [1-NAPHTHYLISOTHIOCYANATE] as well?
224.9

Would you mind doing Cc1cnc(NC(=O)C2=C(O)c3ccccc3S(=O)(=O)N2C)s1 as well?
226.2

Would you mind doing COc1ccc(Cl)cc1C(=O)NCCc1ccc(S(=O)(=O)NC(=O)NC2CCCCC2)cc1 [GLYBURIDE] as well?
216

Would you mind doing CS(=O)(=O)Nc1ccc([N+](=O)[O-])cc1Oc1ccccc1 [NIMESULIDE] as well?
201.3

Would you mind doing Cc1cccc(Nc2cc(Cl)nc(SCC(=O)O)n2)c1C as well?
202.9

* * *

- Species on record: Rattus norvegicus
- Assay procedure: Open TG-GATES - Regimen: Daily Repeat
- Assay type: toxicity, organism-based, Sprague-Dawley
- Set-up: regimen Daily Repeat, gender Male, age 6 weeks
- Measurement parameters: in vivo, po, 0 mg/kg, […], tissue Blood, route gavage, dose level Control, time 28 day
Ret reference
Field: numeric (%). Do not append units.

Compound	Readout unit	Ret
COc1ccc(O)c(C(C)(C)C)c1.COc1ccc(O)cc1C(C)(C)C [BUTYLATED HYDROXYANISOLE]	%	2.3

Can you look up the measured Ret of COc1ccc(Cl)cc1C(=O)NCCc1ccc(S(=O)(=O)NC(=O)NC2CCCCC2)cc1 [GLYBURIDE] for me?
2.8

Would you mind doing Cc1cnc(NC(=O)C2=C(O)c3ccccc3S(=O)(=O)N2C)s1 as well?
2.4

Would you mind doing CS(=O)(=O)Nc1ccc([N+](=O)[O-])cc1Oc1ccccc1 [NIMESULIDE] as well?
2.7

Would you mind doing O=P1(N(CCCl)CCCl)NCCCO1 (stereo unspecified) [CYCLOPHOSPHAMIDE ANHYDROUS] as well?
2.9

Would you mind doing O=C1NC(=O)C(c2ccccc2)(c2ccccc2)N1 as well?
3.1

Would you mind doing Cn1cnc([N+](=O)[O-])c1Sc1ncnc2nc[nH]c12 as well?
2.7

Would you mind doing C=CCO as well?
2.6

Would you mind doing O=C1CN(/N=C/c2ccc(-c3ccc([N+](=O)[O-])cc3)o2)C(O)=N1 as well?
2.8

Would you mind doing Cc1cccc(Nc2cc(Cl)nc(SCC(=O)O)n2)c1C as well?
2.3

Would you mind doing Cn1c(=O)c2c(ncn2C)n(C)c1=O as well?
2.6
